Examples of compounds with documented TGI follow.
# Tested on: IGROV1 ovarian
# method-description: NCI tumour cell line growth inhibition, 48 h

// known answers, use as guide
Nc1ccccc1SC(CC(=O)c1ccccc1)c1c(Cl)cccc1Cl (centres undefined); 8.62 µM
CC1=CC(=O)c2ccc3c4ccccc4n(C)c3c2C1=O; > 100 µM

Item: COc1ccc(-n2c(C)nc3ccc(NC4OCC(OC(C)=O)C(OC(C)=O)C4OC(C)=O)cc3c2=O)cc1 (centres undefined) | TGI: > 100 µM

Item: `COC(=O)c1cc2c3cc(Cl)ccc3[nH]c2c2ncccc12` | TGI: > 100 µM

Item: `CCSc1c2cc(OC)ccc2nc2ccc(OC)cc12` | TGI: > 55 µM

###

Examples of compounds with documented TGI follow.
# Test system: UO-31 renal
# method-description: NCI tumour cell line growth inhibition, 48 h

// known answers, use as guide
Nc1nc(N)c2ncn(Cc3ccccc3CO)c2n1; > 100 µM
NNC(=S)N/N=C(\c1nc2ccc(Cl)cc2[nH]c1=O)C(O)c1cccc([N+](=O)[O-])c1 (configuration not stated); > 100 µM
O=C1CSc2ccnc(=O)n21; > 100 µM
O=C(N/N=C\c1ccc([N+](=O)[O-])cc1)Nc1ccc2ccccc2c1; > 100 µM
CCn1cnc(C[C@H](NC(=O)[C@@H](NC(=O)Nc2cc(C(F)(F)F)cc(C(F)(F)F)c2)C(C)(C)C)C(=O)OC)c1; > 10 µM

Item: CC(=O)OC1CCC2(C)C(=CCC3C2CCC2(C)C3CC3OC4(CCC(C)CN4)C(C)C32)C1 (configuration not stated) | TGI: > 100 µM

Item: `CC1(C)COC(c2cccc(C(=O)c3ccccc3)c2)=N1` | TGI: > 100 µM

###

# Test system: MOLT-4 leukemia
# method-description: NCI tumour cell line growth inhibition, 48 h
quantity-name: TGI

CCCCCCCCCCCC(=O)OCC(O)CO (stereo not drawn); > 100 µM
Cc1nsc2cc(Cl)n(C)c(=O)c12; > 100 µM

Record Cc1cc(O)c(C(O)c2ccccn2)cc1O (stereo not drawn) ; system MOLT-4 leukemia; TGI = > 100 µM

###

# Tested on: IGROV1 ovarian
# method-description: NCI tumour cell line growth inhibition, 48 h
quantity-name: TGI

CC(=O)/C=C1/C(=O)C(CC(C)C)=C1CC(C)C; > 100 µM
CN(COC(=O)C(C)(C)C)c1nc(N(C)COC(=O)C(C)(C)C)nc(N(C)COC(=O)C(C)(C)C)n1; > 100 µM

Record `COc1ccc(/C(=N/O)c2cc(F)c(F)c(OC)c2F)cc1O` ; system IGROV1 ovarian; TGI = > 100 µM

Record COc1cc(/C=C2\CC3C4CC=C5C[C@@H](N6CCCC6)CC[C@]5(C)C4CC[C@]3(C)[C@H]2OC(C)=O)ccc1OCCCn1ccnc1 (stereo partly specified) ; system IGROV1 ovarian; TGI = > 50 µM

Record COc1cc(C(C)c2cc3c(cc2OCCCCCOc2cc4c(cc2C(C)c2cc(OC)c(OC)c(OC)c2)OCO4)OCO3)cc(OC)c1OC (stereo unspecified) ; system IGROV1 ovarian; TGI = > 100 µM

Record NNC(=S)N/N=C(\c1nc2ccc(Cl)cc2[nH]c1=O)C(O)c1cccc([N+](=O)[O-])c1 (stereo unspecified) ; system IGROV1 ovarian; TGI = > 100 µM
